molecular target: kinases (Homo sapiens); construct: purchased Eurofins/DiscoveRx; host or cells: E. coli BL21-derived host (T7 phage display) for most kinases; HEK-293 for the rest; experiment: KINOMEscan kinase binding assay (Eurofins/DiscoveRx), % Ctrl; details: 1 μM; KIT-autoinhibited
Sequence (P10721 26-976): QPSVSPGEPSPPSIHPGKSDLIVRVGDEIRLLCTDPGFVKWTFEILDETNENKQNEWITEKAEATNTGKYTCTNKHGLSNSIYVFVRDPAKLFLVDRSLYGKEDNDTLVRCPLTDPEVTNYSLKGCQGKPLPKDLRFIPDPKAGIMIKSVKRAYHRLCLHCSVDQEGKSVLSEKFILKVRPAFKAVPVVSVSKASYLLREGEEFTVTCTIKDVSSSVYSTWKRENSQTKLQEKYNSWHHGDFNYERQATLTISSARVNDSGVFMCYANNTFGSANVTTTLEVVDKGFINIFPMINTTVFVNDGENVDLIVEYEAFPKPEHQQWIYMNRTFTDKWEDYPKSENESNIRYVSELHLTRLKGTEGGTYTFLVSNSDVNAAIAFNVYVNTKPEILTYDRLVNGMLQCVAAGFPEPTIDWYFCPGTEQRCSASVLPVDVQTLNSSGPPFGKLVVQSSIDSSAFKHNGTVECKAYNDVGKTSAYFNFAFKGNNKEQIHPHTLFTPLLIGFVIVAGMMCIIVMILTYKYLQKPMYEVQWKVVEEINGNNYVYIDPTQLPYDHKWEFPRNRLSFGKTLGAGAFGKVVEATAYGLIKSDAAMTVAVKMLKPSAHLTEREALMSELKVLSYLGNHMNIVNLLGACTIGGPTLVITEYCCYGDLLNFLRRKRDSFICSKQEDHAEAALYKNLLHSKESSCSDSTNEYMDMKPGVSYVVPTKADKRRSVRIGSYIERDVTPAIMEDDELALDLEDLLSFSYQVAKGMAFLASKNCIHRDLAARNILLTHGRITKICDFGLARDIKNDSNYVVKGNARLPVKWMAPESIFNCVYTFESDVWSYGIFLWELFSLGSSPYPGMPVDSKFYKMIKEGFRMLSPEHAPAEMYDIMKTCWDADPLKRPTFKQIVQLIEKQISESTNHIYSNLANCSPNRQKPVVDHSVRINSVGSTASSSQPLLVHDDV
QUANTITY KIND: % Ctrl, KIT-autoinhibited (% Ctrl)

Sample answers from the record:
Cc1cc2c([nH]1)/C=C1\C(=O)Nc3ccc(cc31)OCCOCCN(C)C2=O = 73
Cc1cc2c([nH]1)/C=C1\C(=O)Nc3ccc(cc31)OCCOCCNC2=O = 78
Cc1cc2c([nH]1)/C=C1\C(=O)Nc3ccc(cc31)-c1ccnn1CCNCCNC2=O = 81

A = Cc1cc2c([nH]1)/C=C1\C(=O)Nc3cc(Cl)c(cc31)OCCO[C@@H](C(=O)N[C@@H]1CCNC1)CN(C)C2=O
B = Cc1cc2c([nH]1)/C=C1\C(=O)Nc3cc(Cl)c(cc31)OCCOCCN(C)C2=O
Exercise: # compare % Ctrl, KIT-autoinhibited for A vs B ; return the one with the smaller value # answer = label of selected item
Key: B
